// data source = PubChem BioAssay AID1159580

Each entry below lists one item and its recorded normalized growth value.
test: chemical genetic growth profiling, strain panel (AID 1159580);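 note: tested at 20 µM; growth read once vehicle control cultures reached saturation at 30 °C; 1 = growth at the plate median or of vehicle wells; lower values mean less growth of the strain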; conditions: S. cerevisiae deletion strains, growth OD, locus YHR200W, strain rpn10, active compounds read low
Among all 5,500 compounds or so, about 2,000 (36%) were called active. Not shown: some 18% with an inconclusive outcome. The list shows a part of the results.

# COMPOUND, normalized growth
rows = [
    ("CC(=O)OC1CCC2(C)C(CC(OC(C)=O)C3(C)C4=CC(=O)OC(c5ccoc5)C4(C)CCC23)C1(C)C (stereo not drawn)", 1),
    ("CC(=O)N[C@@H](Cc1c[nH]c2ccccc12)C(N)=O", 1.01),
    ("CCOC(=O)NNc1nncc2ccccc12", 0.981),
    ("NCC(N)C(=O)c1ccccc1 (stereo not drawn)", 0.999),
    ("COc1cc(C/C=C/c2ccccc2)c(OC)cc1O", 0.983),
    ("CC(=O)O[C@@H]1CC2C(C)(C)C(=O)C=C[C@]2(C)C2CC[C@]3(C)C(=CC(=O)O[C@H]3c3ccoc3)[C@@]21C (stereo partly drawn)", 0.994),
    ("CN(C)C(=O)Oc1cccc([N+](C)(C)C)c1", 0.981),
    ("COc1ccc2cc(CCC(C)=O)ccc2c1", 0.933),
]
